Target: T1, human CDH6 on tumor cells (OVCAR3 cells, PA-1 cells) (human, UniProt P55285 54-790)
T1 sequence: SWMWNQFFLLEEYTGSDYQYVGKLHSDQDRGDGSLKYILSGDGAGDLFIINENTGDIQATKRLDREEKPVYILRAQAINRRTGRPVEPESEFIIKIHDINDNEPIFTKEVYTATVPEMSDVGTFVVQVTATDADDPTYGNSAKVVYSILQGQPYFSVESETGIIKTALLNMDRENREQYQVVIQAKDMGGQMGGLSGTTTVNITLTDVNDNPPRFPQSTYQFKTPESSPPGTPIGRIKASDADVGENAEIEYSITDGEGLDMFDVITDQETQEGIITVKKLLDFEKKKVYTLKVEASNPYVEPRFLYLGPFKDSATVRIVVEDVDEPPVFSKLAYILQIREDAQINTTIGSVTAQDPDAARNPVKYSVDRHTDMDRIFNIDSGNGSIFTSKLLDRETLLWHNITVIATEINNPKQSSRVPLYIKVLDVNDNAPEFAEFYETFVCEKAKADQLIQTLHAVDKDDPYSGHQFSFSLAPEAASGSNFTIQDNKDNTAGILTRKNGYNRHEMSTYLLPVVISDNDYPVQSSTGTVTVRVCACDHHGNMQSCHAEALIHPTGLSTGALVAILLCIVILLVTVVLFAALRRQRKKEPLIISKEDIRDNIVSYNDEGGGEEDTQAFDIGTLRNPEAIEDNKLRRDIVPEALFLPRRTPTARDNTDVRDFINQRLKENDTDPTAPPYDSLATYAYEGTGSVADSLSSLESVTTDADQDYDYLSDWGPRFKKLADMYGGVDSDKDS
Test: FACS, PA-1 cells
metric: EC50 (nM)

binder="CHI-CDH6-5 (antibody, human IgG1, kappa, V domains shown, also called CH1-CDH6-5; chimeric antibody of murine CDH6-5) VH: QVQLQQSGAELVRPGTSVKMSCKAAEYTFTNYWIGWVKQRPGHGLEWIGDLYPGGDHANYNEKFEGKATLTADTSSSTAYMQLSSLTSEDSAIYYCARGMLTTGFDSWGQGTTLTVSS VL: DIVMSQSPSSLAVSAGEKVTMSCKSSQSLFNSRTRKNYLAWYQQKPGQSPKLLIYWASTRESGVPDRFTGSGSGTDFTLTISSVQAEDLAVYYCKQSYYLRTFGGGTKLEIKR" observed_value=0.49
binder="CHI-CDH6-13 (antibody, human IgG1, kappa, V domains shown, also called chimeric antibody of murine CDH6-13) VH: DVQLQESGPGLVKPSQSLSLTCSVTGYSITKDSYWNWIRQFPGSKLEWMGFISYDGSRHYNPSLKNRISITRDTSKNQFFLQLNSVTTEDTATYYCARRDYADYWGQGTTLTVSS VL: QIVLTQSPALMSAFPGEKVTMTCSATSSVSYIYWYQQKPRSSPKPWIYLTSNLASGVPARFSGSGSGTSYSLTINSLEAEDAATYYCQQWSSIPYTFGGGTKLEIKR" observed_value=1.97
binder="CHI-CDH6-14 (antibody, human IgG1, kappa, V domains shown, also called CHI-hCDH6-14; CH1-CDH6-14) VH: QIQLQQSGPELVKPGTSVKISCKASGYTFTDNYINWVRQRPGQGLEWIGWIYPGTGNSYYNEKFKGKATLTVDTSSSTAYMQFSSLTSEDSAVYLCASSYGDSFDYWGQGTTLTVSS VL: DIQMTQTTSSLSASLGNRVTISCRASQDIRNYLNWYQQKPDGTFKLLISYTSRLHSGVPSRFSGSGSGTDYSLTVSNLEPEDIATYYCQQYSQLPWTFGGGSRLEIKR" observed_value=0.26
